- test_system: human EHMT2 913-1193 (Homo sapiens)
- Construct: recombinant purified human EHMT2 913-1193, Viva; purchased Viva
- measurement_notes: EHMT2 enzyme assay on histone peptide substrate (EHMT2 PEP)
- Format: biochemical
- protocol_conditions: Table VI; read-out: EHMT2 PEP IC50
pIC50: −log10 of the molar value.
pIC50 listing for selected compounds.

compound | pIC50
CNc1cc(C)nc(Nc2cnc(OC)c(CNCCN3CCCC3)c2)n1 | 6.00 to 7.00
CNc1cc(C)nc(Nc2ccc(OC)c(CN[C@H]3CCNC3)c2)n1 | 5.00 to 6.00
CCN1CCC(N(C)Cc2cc(Nc3nc(C)cc(NC)n3)ccc2OC)C1 (stereo not drawn) | < 5.00
CNC[C@@H](O)COc1cc(Nc2nccc(NC)n2)cnc1OC | 5.00 to 6.00
CNc1ccnc(Nc2ccc(OC)c(OC[C@H]3CN(C)CCO3)c2)n1 | < 5.00
CNc1ccnc(Nc2ccc(OC)c(OCCC(C)N3CCC3)c2)n1 (stereo not drawn) | 5.00 to 6.00
CNc1cc(C)nc(Nc2cc(OC[C@@H](O)CN3CCCC3)c(OC)cn2)n1 | 5.00 to 6.00
COc1cc2c(C3CCN(C(C)C)CC3)nc(C)nc2cc1OCCCN1CCCC1 | 6.00 to 7.00
CNc1cc(C)nc(Nc2ccc(OC)c(OC[C@H](O)CN3CC(F)C3)c2)n1 | 6.00 to 7.00

====

- test_system: EHMT1 (Homo sapiens)
- Sequence (Q9H9B1 whole entry, species assumed): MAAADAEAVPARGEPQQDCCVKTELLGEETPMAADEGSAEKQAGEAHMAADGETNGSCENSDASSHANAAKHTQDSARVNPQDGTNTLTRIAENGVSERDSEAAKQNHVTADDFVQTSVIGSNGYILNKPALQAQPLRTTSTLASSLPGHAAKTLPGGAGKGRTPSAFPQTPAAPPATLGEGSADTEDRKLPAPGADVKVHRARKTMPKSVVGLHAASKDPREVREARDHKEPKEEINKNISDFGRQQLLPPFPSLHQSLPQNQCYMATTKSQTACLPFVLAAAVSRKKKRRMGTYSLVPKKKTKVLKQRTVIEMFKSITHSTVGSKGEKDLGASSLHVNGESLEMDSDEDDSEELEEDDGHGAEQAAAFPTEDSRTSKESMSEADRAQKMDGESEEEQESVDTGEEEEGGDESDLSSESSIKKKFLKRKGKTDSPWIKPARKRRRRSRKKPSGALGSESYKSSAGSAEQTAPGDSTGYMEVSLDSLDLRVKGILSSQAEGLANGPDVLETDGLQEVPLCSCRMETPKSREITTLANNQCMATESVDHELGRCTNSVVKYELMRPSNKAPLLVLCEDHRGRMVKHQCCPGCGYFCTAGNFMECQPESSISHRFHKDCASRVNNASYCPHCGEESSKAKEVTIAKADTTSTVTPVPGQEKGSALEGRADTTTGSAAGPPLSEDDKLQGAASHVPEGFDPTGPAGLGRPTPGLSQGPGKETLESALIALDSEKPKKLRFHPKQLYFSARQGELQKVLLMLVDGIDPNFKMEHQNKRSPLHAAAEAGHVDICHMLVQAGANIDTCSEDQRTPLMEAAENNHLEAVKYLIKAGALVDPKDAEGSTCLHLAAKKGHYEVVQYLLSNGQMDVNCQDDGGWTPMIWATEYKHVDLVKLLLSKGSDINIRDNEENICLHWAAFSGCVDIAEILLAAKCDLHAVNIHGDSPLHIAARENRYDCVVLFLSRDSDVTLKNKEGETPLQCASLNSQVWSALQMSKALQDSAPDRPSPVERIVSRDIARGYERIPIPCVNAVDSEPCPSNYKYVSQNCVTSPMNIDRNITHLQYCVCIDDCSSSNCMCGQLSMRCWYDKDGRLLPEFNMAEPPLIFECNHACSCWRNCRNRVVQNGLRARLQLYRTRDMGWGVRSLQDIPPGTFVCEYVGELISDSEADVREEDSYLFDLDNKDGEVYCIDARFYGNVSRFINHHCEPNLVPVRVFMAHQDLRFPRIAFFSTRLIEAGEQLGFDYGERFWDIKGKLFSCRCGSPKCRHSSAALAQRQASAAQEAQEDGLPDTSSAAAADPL
- measurement_notes: EHMT1 enzyme assay on peptide substrate (EHMT1 PEP)
- Assay type: biochemical
- protocol_conditions: Table VI; read-out: EHMT1 PEP IC50

chemical_smiles | test_system | IC50
COc1cc2c(C3CCOCC3)cc(N3CCCCC3)nc2cc1OCCCN1CCCC1 | EHMT1 (Homo sapiens) | 100 to 1000 nM
CNc1cc(C)nc(Nc2cc(OCCCN3CCCC3)c3nccn3c2)n1 | EHMT1 (Homo sapiens) | 100 to 1000 nM
CNc1cc(C)nc(Nc2ccc(OC)c(OC[C@@H](O)CN3CCCC3)c2)n1 | EHMT1 (Homo sapiens) | 100 to 1000 nM
CCN1CC[C@@H](COc2cc(Nc3nccc(NC)n3)ccc2OC)C1 | EHMT1 (Homo sapiens) | < 100 nM
CNc1cc(C)nc(Nc2cc(OCCCN3CCCC3)c3nc(C)cn3c2)n1 | EHMT1 (Homo sapiens) | 100 to 1000 nM

====

- test_system: EHMT2 (Homo sapiens)
- Construct: host or cells: MDA-MB-231
- Sequence (Q96KQ7 whole entry): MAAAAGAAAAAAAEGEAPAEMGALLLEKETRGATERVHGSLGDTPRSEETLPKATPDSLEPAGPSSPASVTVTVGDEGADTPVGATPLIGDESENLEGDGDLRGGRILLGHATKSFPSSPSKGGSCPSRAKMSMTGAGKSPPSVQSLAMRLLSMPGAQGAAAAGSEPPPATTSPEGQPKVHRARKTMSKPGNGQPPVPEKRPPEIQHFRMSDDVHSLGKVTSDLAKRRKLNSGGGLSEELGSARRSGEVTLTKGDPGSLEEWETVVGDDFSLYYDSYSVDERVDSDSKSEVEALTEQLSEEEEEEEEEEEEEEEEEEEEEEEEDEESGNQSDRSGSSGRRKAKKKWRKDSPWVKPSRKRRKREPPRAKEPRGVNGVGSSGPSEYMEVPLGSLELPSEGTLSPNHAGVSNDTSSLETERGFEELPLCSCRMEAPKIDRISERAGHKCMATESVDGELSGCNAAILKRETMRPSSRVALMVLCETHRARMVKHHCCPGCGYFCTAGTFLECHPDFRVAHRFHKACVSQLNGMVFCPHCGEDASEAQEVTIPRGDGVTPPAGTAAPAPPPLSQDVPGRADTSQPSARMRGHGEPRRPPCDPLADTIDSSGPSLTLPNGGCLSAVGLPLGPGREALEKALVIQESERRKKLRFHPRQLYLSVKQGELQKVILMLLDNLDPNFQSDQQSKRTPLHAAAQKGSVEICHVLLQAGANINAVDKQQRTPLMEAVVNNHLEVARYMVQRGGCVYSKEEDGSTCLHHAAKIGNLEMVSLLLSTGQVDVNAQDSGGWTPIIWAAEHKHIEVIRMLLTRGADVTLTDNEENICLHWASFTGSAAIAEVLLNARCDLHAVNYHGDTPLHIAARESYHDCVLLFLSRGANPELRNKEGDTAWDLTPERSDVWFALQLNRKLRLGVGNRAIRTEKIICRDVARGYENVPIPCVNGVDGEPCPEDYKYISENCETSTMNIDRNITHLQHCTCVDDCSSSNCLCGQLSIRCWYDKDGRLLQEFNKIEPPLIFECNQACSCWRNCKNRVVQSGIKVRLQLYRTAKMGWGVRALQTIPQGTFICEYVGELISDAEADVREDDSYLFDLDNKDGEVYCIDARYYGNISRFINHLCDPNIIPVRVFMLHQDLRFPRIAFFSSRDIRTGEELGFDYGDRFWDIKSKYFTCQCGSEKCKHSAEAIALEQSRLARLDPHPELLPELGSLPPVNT
- measurement_notes: MDA-MB-231 H3K9me2 in-cell Western assay (EHMT2 ICW)
- Format: cell-based
- protocol_conditions: Table III; MDA-MB-231 H3K9me2 in-cell Western; read-out: EHMT2 ICW (IC50 μM)

molecule | IC50
CNc1ccnc(Nc2ccc(OC)c(OCC3CCCN(C)C3)c2)n1 (stereo not shown) | 1 to 10 µM
CNc1ccnc(Nc2ccc(OC)c(OC[C@H](O)CN3CCCC3)c2)n1 [Compound 299] | 0.1 to 1 µM
CNc1ccnc(Nc2ccc(OC)c(OCCCN3CC[C@H](F)C3)c2)n1 | > 10 µM
COc1ccc(Nc2nccc(NC(C)C3CCOCC3)n2)cc1OCCCN1CCCC1 (stereo not shown) | 0.1 to 1 µM
CNc1ccnc(Nc2ccc(OC)c(OCc3cc(C4CC4)on3)c2)n1 | > 10 µM
CNc1ccnc(Nc2ccc3ccn(CCN4CCCC4)c(=O)c3c2)n1 | > 10 µM
COc1ccc(Nc2ccc3cnn(C)c3n2)cc1OCCCN1CCCC1 | > 10 µM
CNc1cncc(Nc2ccc(OC)c(OCCCN3CCCC3)c2)n1 | > 10 µM
CNc1ccnc(Nc2ccc3c(c2)C(=O)N(CCN2CCCC2)CC3)n1 | > 10 µM
COc1ccc(Nc2nccc(NCC3CCOCC3)n2)cc1OC1CC2(C1)CN(C)C2 | > 10 µM
CNc1cc(N2CCCC2)nc(Nc2ccc(OC)c(OCCCN3CCCC3)c2)n1 | > 10 µM
CNc1ccnc(Nc2ccc(OC)c(OCC3CCN(C)C3)c2)n1 (single isomer, unassigned) [Compound 415] | 1 to 10 µM
COc1ccc(Nc2nccc(NCC3CCOCC3)n2)cc1OC1CCC2(CC1)CN(C)C2 | > 10 µM
COc1ccc(Nc2nc(C)cc(NCC3CCOCC3)n2)cc1OCC1CCN(C)C1 (stereo not shown) | 1 to 10 µM
CNc1cc(Nc2ccc(OC)c(OCCCN3CCCC3)c2)ncc1F | 1 to 10 µM
CNc1ccnc(Nc2ccc(OC)c(OCCCN3CC(O)C3)c2)n1 | 0.1 to 1 µM
CNc1ccnc(Nc2ccc(OC)c(OC[C@@H]3CN(C)C[C@H]3C)c2)n1 (single isomer, unassigned) | > 10 µM
CNc1cc(C)nc(Nc2ccc(OC)c(OCC3CN(C)C3)c2)n1 | 0.1 to 1 µM
CNc1ccnc(N[C@@H]2CCC[C@H](OCCCN3CCCC3)C2)n1 | > 10 µM
CNc1cc(C)nc(Nc2ccc(OC)c(OCC3CNC3)c2)n1 | 1 to 10 µM
CNc1ccnc(Nc2cccc(OCC(F)(F)CN3CCCC3)c2)n1 | > 10 µM
CNc1ccnc(Nc2ccc(OC)c(OCCCN3CCC(O)C3)c2)n1 (stereo not shown) | 0.1 to 1 µM
CNc1ccnc(Nc2cccc(N3CCC(N(C)C)C3=O)c2)n1 (stereo not shown) | > 10 µM
CNc1nccc(Nc2ccc(OC)c(OCCCN3CCCC3)c2)n1 | 0.1 to 1 µM
CNc1nc(C)cc(Nc2cc(OCCCN3CCCC3)c(OC)cn2)n1 | > 10 µM
CNc1ccnc(Nc2ccc3cnn(CCN(C)C)c3c2)n1 | > 10 µM
CNc1ccnc(Nc2cccc(N3CCC(N(C)C)C3)c2)n1 (stereo not shown) | > 10 µM
COc1ccc(Nc2nc(C)cc(O)n2)cc1OCCCN1CCCC1 | > 10 µM
COc1ccc(Nc2nccc(-c3cnn(C)c3)n2)cc1OCCCN1CCCC1 | > 10 µM
CNc1ccnc(Nc2ccc(OC)c(OCCCN(C)C)c2)n1 | 0.1 to 1 µM
CNc1ccnc(Nc2ccc(OC)c(COC3CCN(C)C3)c2)n1 (stereo not shown) | 0.1 to 1 µM
CNc1ccnc(Nc2ccc(OC)c(OCc3noc(C4CC4)n3)c2)n1 | > 10 µM
CNc1nc(C2CCN(C)CC2)c2cc(OC)c(OCCCN3CCCC3)cc2n1 | 0.1 to 1 µM
CNc1ccnc(Nc2ccc(OC)c(OCc3cn(C4CC4)nn3)c2)n1 | > 10 µM
CNc1ccnc(Nc2ccc(OC)c(OCCCN3CCC(S(C)(=O)=O)C3)c2)n1 (stereo not shown) | > 10 µM
CNc1ccnc(Nc2cccc(N3CCC(N)C3)c2)n1 (stereo not shown) [Compound 400] | > 10 µM
CCN(CC)CCCOc1cc(Nc2nccc(NC)n2)ccc1OC | 1 to 10 µM

====

- test_system: human EHMT2 913-1193 (Homo sapiens, UniProt Q96KQ7)
- Construct: recombinant purified human EHMT2 913-1193, Viva; purchased Viva
- Sequence (Q96KQ7 913-1193): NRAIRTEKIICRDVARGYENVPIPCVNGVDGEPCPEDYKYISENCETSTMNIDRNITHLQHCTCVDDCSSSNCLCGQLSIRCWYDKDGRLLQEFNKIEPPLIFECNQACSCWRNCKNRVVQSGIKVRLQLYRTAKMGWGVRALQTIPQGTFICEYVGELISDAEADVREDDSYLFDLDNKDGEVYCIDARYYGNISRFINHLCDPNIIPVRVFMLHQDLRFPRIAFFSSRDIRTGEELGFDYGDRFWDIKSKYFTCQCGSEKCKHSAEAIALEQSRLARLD
- measurement_notes: EHMT2 enzyme assay on histone peptide substrate (EHMT2 PEP)
- Format: biochemical
- protocol_conditions: Table II; read-out: EHMT2 PEP (IC50 μM)

compound | IC50
CNc1ccnc(Nc2cccc(OCC(O)CN3CCCC3)c2)n1 (centres unmarked) [Compound 212] | 1 to 10 µM
COc1ccc(Nc2nccc(N(C)CCCO)n2)cc1OCCCN1CCCC1 [Compound 140] | 1 to 10 µM
COc1ccc(Nc2nccc(N(C)Cc3ccncc3)n2)cc1OCCCN1CCCC1 [Compound 56] | 1 to 10 µM
COc1ccc(Nc2nccc(N3CCCN(C(C)=O)CC3)n2)cc1OCCCN1CCCC1 [Compound 138] | 1 to 10 µM
CNc1ccnc(Nc2ccc(OC)c(OCCCN3CCCC3)c2)n1 [Compound 1] | < 0.1 µM

====

IC50 listing for selected compounds.
- test_system: human EHMT2 913-1193 (Homo sapiens, UniProt Q96KQ7)
- Construct: recombinant purified human EHMT2 913-1193, Viva; purchased Viva
- measurement_notes: EHMT2 enzyme assay on histone peptide substrate (EHMT2 PEP)
- Assay type: biochemical
- protocol_conditions: recombinant human EHMT2 913-1193, histone H3 1-15 peptide, balanced conditions; read-out: EHMT2 PEP (IC50 μM)
readout: IC50

compound | readout | observed_measurement
CNc1cc(Nc2cc(OC[C@@H]3CCN(C)C3)c(OC)cn2)nc(C)n1 | IC50 | 1 to 10 µM
CNc1cc(C2CCN(C)CC2)c2cc(OC)c(OCCCN3CCCC3)cc2n1 | IC50 | < 0.1 µM
CCCCN1CCC(C)(Nc2nccc(NC)n2)CC1 | IC50 | > 10 µM
CN1CCC(COc2ccc(NC3CCNCC3)nc2)C1 (stereo not shown) | IC50 | > 10 µM
CNc1cc(C)nc(Nc2ccc(OC)c(OCCC3CN(C)C3)c2)n1 | IC50 | 1 to 10 µM
CNc1cc(C)nc(Nc2ccc(OC)c(OCCCN3CCC4(CC4)C3)c2)n1 | IC50 | 1 to 10 µM
c1nc(NC2CCNCC2)ncc1OCCCN1CCCC1 | IC50 | > 10 µM
COc1cnc(Nc2cc(C)nc3[nH]ncc23)cc1OCCCN1CCCC1 | IC50 | 1 to 10 µM
COc1cnc(Nc2nc(C)cc3[nH]ccc23)cc1OCC1CCN(C2CC2)C1 (stereo not shown) | IC50 | < 0.1 µM
CNc1cc(C)nc(Nc2ccc(OC)c(OCC3CCN(C4CCCC4)C3)c2)n1 (stereo not shown) | IC50 | 1 to 10 µM
CNc1ccnc(NC2(C)CCCNC2)n1 (stereo not shown) | IC50 | > 10 µM
COc1ccc(Nc2nccc3[nH]ncc23)cc1OCCCN1CCCC1 | IC50 | > 10 µM
C/C=C/C(=O)Nc1ccc(OC)c(OCCCN2CCCC2)c1 | IC50 | > 10 µM
CCCCN1CCCC(C)(Nc2nccc(NC)n2)C1 (stereo not shown) | IC50 | > 10 µM
CNc1cc(Nc2cc(OCCCN3CC4CC4C3)c(OC)cn2)nc(C)c1F (stereo not shown) | IC50 | 0.1 to 1 µM
CNc1ccnc(NC2(C)CCNCC2)n1 | IC50 | > 10 µM
CNc1cc(C)nc(Nc2ccc(OC)c([C@H]3C[C@H]3CN(C)C)c2)n1 | IC50 | 0.1 to 1 µM
CNc1cc(C)nc(Nc2ccc(OC)c(OCCCN3CC4(CC4)C3)c2)n1 | IC50 | 1 to 10 µM
CNc1cc(C)nc(Nc2ccc(OC)c(OC(C#N)CCN3CCCC3)c2)n1 (stereo not shown) | IC50 | 1 to 10 µM

Source: patent US20210198277A1
